Below, each entry is listed alongside its reported Kd.
- Target under test: T1, PUF4 RNA-binding domain (Saccharomyces cerevisiae, UniProt P25339 537-888)
- T1 sequence: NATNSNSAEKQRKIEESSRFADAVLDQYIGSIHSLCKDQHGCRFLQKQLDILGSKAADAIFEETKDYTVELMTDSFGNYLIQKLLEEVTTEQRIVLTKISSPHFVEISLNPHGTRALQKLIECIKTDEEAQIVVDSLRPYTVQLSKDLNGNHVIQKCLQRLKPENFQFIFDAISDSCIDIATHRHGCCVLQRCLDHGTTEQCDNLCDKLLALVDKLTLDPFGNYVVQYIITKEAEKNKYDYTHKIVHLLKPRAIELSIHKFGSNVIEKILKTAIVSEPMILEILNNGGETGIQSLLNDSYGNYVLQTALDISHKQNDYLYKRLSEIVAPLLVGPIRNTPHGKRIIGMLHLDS
- Assay protocol: Mg; RNA-MaP; 20 mM Na-HEPES pH 7.4, 30 mM KOAc, 0.75 mM MgCl2, 0.1% Tween-20, 5% glycerol, 0.1 mg/mL BSA, 2 mM DTT; 25 C; 0.0125-409.6 nM protein
- Condition label: tags: N-His6-TEV cleaved; C-SNAP kept, Cy3B-labelled; label: tethered on chip by stalled RNA polymerase
A number alone suffices; assume nM.

// solved cases for Kd follow
>>> measured("UCUCUUUGUAUCAUCUCUCUU (ssRNA) [Ic_S1_P4E.1_K4.1_C4.1_H4.1_A4.1_[A6C]_[T7A]_F4.1_[A9C]_T4.1]")
17.6
>>> measured("Ib_S2_P4E.1_K4.1_C4.1_H4.1_[A4G]_A4.1_[A6C]_F4.1_T4.1 (ssRNA) RNA: UUUGAUUAAUAUGAUAUCGUUCUUUCUUGUGUCUUAUUCUUUCUCGAUAUCAUAUUAAUCUUU")
8.2
>>> measured("UCUCUUUGUAAAUUUUCUCUU (ssRNA) [Ic_S1_P4E.1_K4.1_C4.1_H4.1_A4.1_[T5A]_F4.1_[A9T]_T4.1]")
18.3
>>> measured("Id_ii_S2_P3E.3_K3.2_C3.2_[C-2T]_[T-1A]_H3.2_A3.1_F3.1_T3.2_[A10T] (ssRNA) RNA: UUUGAUUAAUAUGAUAUCGUUCUUUCUUAUAUAUAUAUUUUCUUUCUCGAUAUCAUAUUAAUCUUU")
83.4
>>> measured("Ia_S2_P4E.1_K4.1_C4.1_H4.1_A4.1_[T7A]_F4.1_T4.1 (ssRNA) RNA: UUUGAUUAAUAUGAUAUCGUUCUUUCUUGUAUAAUAUUCUUUCUCGAUAUCAUAUUAAUCUUU")
0.749

*Q* Report Kd for Ie_S2_P4E.1_K4.1_C4.1_H4.1_[+1T]_A4.1_F4.1_T4.1 (ssRNA) RNA: UUUGAUUAAUAUGAUAUCGUUCUUUCUUUGUAUAUUAUUCUUUCUCGAUAUCAUAUUAAUCUUU please.
*A* 0.232

*Q* Again, but for UCUCUUUGUACACUAUCUCUU (ssRNA) [Ib_S1_P4E.1_K4.1_C4.1_H4.1_A4.1_[T5C]_[T7C]_F4.1_T4.1]
*A* 0.824

*Q* Again, but for Ie_S4_P3E.2_K3.1_C3.2_H3.1_[+3CCCT]_A3.1_F3.1_T3.2 (ssRNA) RNA: UUUGACAACUGAUCGUUCUUUCUCUUGUCCCUAUAUAUAUUCUUUCUCGAUCAGUUGUCUUU
*A* 32.7

*Q* Again, but for UCUCUUUCUUAUAUUAUUAAAUCUCUU (ssRNA) [Id_iii_S1_P5E.6_K5.2_C5.3_H5.2_A5.1_F5.1_T5.2_[T11A]]
*A* 551
